Biological target: long isoform of human D2 receptor (Homo sapiens)
Sequence (P14416 whole entry, canonical isoform): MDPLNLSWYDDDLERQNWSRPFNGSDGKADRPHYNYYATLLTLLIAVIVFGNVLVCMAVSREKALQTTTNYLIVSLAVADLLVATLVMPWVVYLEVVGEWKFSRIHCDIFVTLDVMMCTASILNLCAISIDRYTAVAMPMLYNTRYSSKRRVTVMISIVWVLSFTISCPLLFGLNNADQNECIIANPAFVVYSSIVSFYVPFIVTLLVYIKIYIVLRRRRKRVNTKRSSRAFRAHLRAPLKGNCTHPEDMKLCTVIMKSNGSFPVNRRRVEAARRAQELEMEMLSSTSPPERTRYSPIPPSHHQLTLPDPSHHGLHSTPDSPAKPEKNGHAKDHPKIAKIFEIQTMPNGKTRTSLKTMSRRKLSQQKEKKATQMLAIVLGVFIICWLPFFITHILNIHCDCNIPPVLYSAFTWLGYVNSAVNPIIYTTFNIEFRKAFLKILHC
Assay: cAMP HTRF Agonist Assay (DRD2L PathHunter CHO-K1 cells, forskolin-stimulated)
Parameter: IC50. Scope: all listed entries.
Measurement type: IC50

| Compound | Observed value |
| --- | --- |
| c1cc(OCCCCN2CCc3ccccc3C2)nc(-c2cc[nH]n2)c1 [Compound 44] | < 10 nM |
| O=C1NCCc2ccc(OCCCCN3CCc4cc(Cl)ccc4C3)nc2N1 [Compound 85] | > 10000 nM |
| N#Cc1cccc2c1CN(CCCCOc1ccc3ccc(=O)[nH]c3n1)CC2 [Compound 64] | < 10 nM |
| CCC(=O)Nc1cccc(OCCCCN2CCc3ccccc3C2)n1 [Compound 41] | > 10000 nM |
| Oc1cccc2ccc(OCCCCN3CCN(c4cccc5ccccc45)CC3)nc12 [Compound 6] | 10 to 100 nM |

Origin of the recorded values: patent US9951088B2
